Sourced from patent US20230301300A1

Tested on: Orysa sativa (ORYSA)
Assay: B2 Post-Emergence Efficacy - Test 2
Format: in vivo
Conditions: 500 g/Ha, 15 days after application, 0=no damage, 100=total kill
observed-property: Herbicidal activity on a 0-100 scale, ORYSA
One number for each entry.

Example results:
- Cc1nn(C)c(=O)c(-c2c(F)ccc(Cl)c2CCc2ccc(C#N)cc2)c1O: 40
- Cc1nn(C)c(=O)c(-c2c(F)ccc(Cl)c2CCc2ccc(F)cc2)c1O: 30

Provide Herbicidal activity on a 0-100 scale, ORYSA for all items below, preserving their order.
1. Cc1nn(C)c(=O)c(-c2c(F)ccc(Cl)c2CCc2ccc(Cl)cc2)c1OC(=O)C(C)C
2. Cc1nn(C)c(=O)c(-c2c(F)ccc(Cl)c2CCc2ccc(F)cc2)c1OC(=O)C(C)C
3. Cc1nn(C)c(=O)c(-c2c(F)ccc(Cl)c2CCc2ccc(C(F)(F)F)nc2)c1O
4. Cc1nn(C)c(=O)c(-c2c(F)ccc(Cl)c2CCc2ccccc2C(F)(F)F)c1O

1. 50
2. 0
3. 50
4. 40
